GI50 overview
Test system: OVCAR-5
Assay: NCI tumour cell line growth inhibition, 48 h
The source made the active and inactive calls. No stated cut-off is given here; in the data, active = GI50 up to about 1.1 µM and inactive = higher.
measurement type: GI50

- S=C1NC2=C(COc3ccccc32)C(c2ccc(Cl)cc2)N1 (stereo not given): 16.3 µM (inactive)
- C[C@]12CCC(=O)C=C1CC[C@@H]1C2CC[C@@]2(C)C1CC[C@@H]2OC(=O)C12OC1CCC2=O (stereo not given in full): 17.9 µM (inactive)
- CSC1CC2C(CC1(C)O)C2(C)C (stereo not given): > 100 µM (inactive)
- NC(Cc1ccc2nc3c4ccccc4c(=O)cc-3oc2c1)C(=O)O (stereo not given): > 100 µM (inactive)
- CO[C@H]1C[C@H](n2cc(C)c(=O)[nH]c2=O)O[C@@H]1CO: > 100 µM (inactive)

====

// values below are reported GI50
Test system: OVCAR-3
Assay: NCI tumour cell line growth inhibition, 48 h
The source made the active and inactive calls. Cut-off read from the data, not from the text of the source: active = GI50 up to about 1.1 µM and inactive = higher.
measurement type: GI50

- OC(c1ccsc1)c1cc2ccccc2s1 (configuration not stated): > 10 µM (inactive)
- CC(C)(C)C(=O)OC(N)/C=C/c1ccccc1 (configuration not stated): > 100 µM (inactive)
- CCOC(=O)C1Oc2ccc([N+](=O)[O-])cc2C1(C)O (configuration not stated): > 100 µM (inactive)
- COc1ccccc1C1CC(=O)CC(c2ccccc2OC)C12C(=O)NC(=S)NC2=O (configuration not stated): 80.2 µM (inactive)
- CN(CCCNC(=O)c1cn(C)c2c1ccc1cc(Cl)c(Cl)cc12)CCCNC(=O)c1cn(C)c2c1ccc1cc(Cl)c(Cl)cc12: 18.2 µM (inactive)
- CN(C)C(=O)C(F)(F)C(c1ccccc1Br)C1C(=O)N(C)C(=O)N(C)C1=O (configuration not stated): > 100 µM (inactive)
- C[n+]1c2ccc(Cl)cc2nc2cc(-c3ccccc3)ccc21: 2.03 µM (inactive)
- CN(CCc1ccccn1)c1ccc2c(c1)Cc1ccccc1-2: 26.1 µM (inactive)
- CN(CCc1ccccn1)c1ccc2c(c1)C(=O)c1ccccc1-2: > 100 µM (inactive)
- c1ccc(Nc2nnc(CCCCCCCCc3nnc(Nc4ccccc4)o3)o2)cc1: > 100 µM (inactive)
- Clc1ccc(-c2nn3c(COc4cccc(OCc5nnc6sc(-c7ccc(Cl)cc7)nn56)c4)nnc3s2)cc1: 6.78 µM (inactive)
- C[C@]12CC[C@@H]3c4ccc(OP(=O)(O)O)cc4CC[C@H]3[C@@H]1CCC2=O: 62.8 µM (inactive)
- CCOC(=O)C1=C(C)OC(=O)[C@@]2(OC)C=C(Cl)[C@@]12C: > 100 µM (inactive)
- O=CC(O)C(O)C(O)COc1cc(CO)cc2c1C(=O)c1ccccc1C2=O (configuration not stated): 76.4 µM (inactive)
- O=c1cnc2cc3ccccc3cc2[nH]1: > 100 µM (inactive)
- O=C(O)C1CCCCN1CCc1c[nH]c2ccccc12 (configuration not stated): > 100 µM (inactive)
- C/C(=N\NC(=O)c1ccccc1O)C1=CNc2ccccc2S1: 3.01 µM (inactive)
- CCN(CC)CCOC(c1cc(OC)ccc1OC)c1ccc2n1-c1ccccc1OC2 (configuration not stated): 15.7 µM (inactive)
- COCOCC1CCCN1CN1CCC[C@H]1COCOC (some centres not stated): > 100 µM (inactive)
- O=CC1=CCC2c3[nH]c4ccccc4c3CCN2C1 (configuration not stated): 92.5 µM (inactive)
- Cc1[nH]c2ncn3ncnc3c2c1Cc1ccccc1: > 100 µM (inactive)
- O=C1CS(=O)(=O)C(c2cccc(Oc3ccccc3)c2)N1c1cc(Cl)ccc1Cl (configuration not stated): 19 µM (inactive)
